experiment: Half-life for disappearance of compound measured at 37 degree C and pH 7.4 in rat liver microsomal preparations; type: ADME; settings: liver microsomes
Assay metric: half-life (h)
Unit h implied. Number only.

Incoming: Kindly indicate its recorded half-life. Item: O=NN(CCCl)C(=O)NCCCl
Outgoing: 1.5
